# credit: patent US20240270821A1

So I've got a bunch of binders here, and I need their cAMP Rel EC50, nM (in the presence of 1% HSA) values.
molecular target: hGLP-1R (Homo sapiens, UniProt P43220); assay: cell-based or functional assay
Sequence (P43220 24-463): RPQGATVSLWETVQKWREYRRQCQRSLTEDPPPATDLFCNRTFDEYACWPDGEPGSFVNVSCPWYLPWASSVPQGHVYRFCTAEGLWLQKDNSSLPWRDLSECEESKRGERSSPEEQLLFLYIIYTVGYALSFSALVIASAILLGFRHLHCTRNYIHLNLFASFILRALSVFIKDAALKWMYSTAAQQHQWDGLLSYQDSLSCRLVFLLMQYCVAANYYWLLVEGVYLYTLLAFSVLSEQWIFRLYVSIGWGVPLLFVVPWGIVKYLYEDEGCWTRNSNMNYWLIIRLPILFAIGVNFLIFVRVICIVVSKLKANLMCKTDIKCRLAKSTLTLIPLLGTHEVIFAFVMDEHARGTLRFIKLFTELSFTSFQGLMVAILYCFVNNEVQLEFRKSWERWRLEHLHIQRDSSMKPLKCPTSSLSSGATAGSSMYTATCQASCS
A bare number is not enough; add the unit after it.

YXQGTFTSDFSXXLDKKAQXAFIEYLLEGGPSSGAPPPGGSG (synthetic construct; SITE 2: note = 2-Aminoisobutyric Acid; SITE 12: note = L-ornithine; SITE 13: note = alpha-methyl-leucine; SITE 17: note = Lysine is chemically modified through conjugation of the epsilon-amino group of the Lysine side chain with (2-[2-(2-Amino-ethoxy)-ethoxy]-acetyl)-(gamma-Glu)) [Example 64] : 397 nM
YXQGTFTSDFSXXLDKKAQXAFIEYLLEAGPSSGEPPPSEG (synthetic construct; SITE 2: note = 2-Aminoisobutyric Acid; SITE 12: note = L-ornithine; SITE 13: note = alpha-methyl-leucine; SITE 17: note = Lysine is chemically modified through conjugation of the epsilon-amino group of the Lysine side chain with (2-[2-(2-Amino-ethoxy)-ethoxy]-acetyl)2-(gamma-Glu)) [Example 116] : 401 nM
YXQGTFTSDFSKXLDKKAQXAFIEYLLEXGPSSGAPPPSEG (synthetic construct; SITE 2: note = 2-Aminoisobutyric Acid; SITE 13: note = alpha-methyl-leucine; SITE 17: note = Lysine is chemically modified through conjugation of the epsilon-amino group of the Lysine side chain with (2-[2-(2-Amino-ethoxy)-ethoxy]-acetyl)-(gamma-Glu)-CO-(CH2) 16-CO2H; SITE 20: n) [Example 57] : 42.7 nM

Dear reader, for each entry below, please note its cAMP Rel EC50, nM (in the presence of 1% HSA).
1. YXQGTFTSDFSXXLDKKAQXAFIEYLLAGGPSSGAPPPSGT (synthetic construct; SITE 2: note = 2-Aminoisobutyric Acid; SITE 12: note = L-ornithine; SITE 13: note = alpha-methyl-leucine; SITE 17: note = Lysine is chemically modified through conjugation of the epsilon-amino group of the Lysine side chain with (2-[2-(2-Amino-ethoxy)-ethoxy]-acetyl)-(gamma-Glu)) [Example 87]
2. YXQGTFTSDFSXXLDKKAQXAFIEYLLAGGPSSGAPPPEGS (synthetic construct; SITE 2: note = 2-Aminoisobutyric Acid; SITE 12: note = L-ornithine; SITE 13: note = alpha-methyl-leucine; SITE 17: note = Lysine is chemically modified through conjugation of the epsilon-amino group of the Lysine side chain with (2-[2-(2-Amino-ethoxy)-ethoxy]-acetyl)-(gamma-Glu)) [Example 93]
3. YXQGTFTSDFSXXLDKKAQXAFIEYLLEGGESSGAPPPSGS (synthetic construct; SITE 2: note = 2-Aminoisobutyric Acid; SITE 12: note = L-ornithine; SITE 13: note = alpha-methyl-leucine; SITE 17: note = Lysine is chemically modified through conjugation of the epsilon-amino group of the Lysine side chain with (2-[2-(2-Amino-ethoxy)-ethoxy]-acetyl)-(gamma-Glu)) [Example 145]

Result:
["290 nM", "397 nM", "1480 nM"]
